- Test system: 935938-334-R-J1-PDC complex spheroid viability;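 also: spheroids exposed to drugs for seven days before viability read; 100% = DMSO vehicle control wells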
- ASSAY PROCEDURE: Anticancer human tumor 935938-334-R-J1-PDC patient-derived small intestine adenocarcinoma cell line growth inhibition [POLQ]
- REPORTED CONDITIONS: second compound 1 µM; first compound 0.1 µM; stronger effect = lower value
Could you please report measured viability, T/C for the items listed next?
One number for each entry, in %.

{"COMPOUND": "CC1COCCN1c1cc(-c2ccnn2C)c2ccnc(-c3ccn[nH]3)c2n1 (stereo not given) + Cc1cccc(N(C)C(=O)C2C(O)CCN2c2nc(C)cc(C(F)(F)F)c2C#N)c1", "viability, T/C / %": 54.9}

Below is a list of compounds. For each, state its recorded viability, T/C.
1. COc1cccc2c1C(=O)c1c(O)c3c(c(O)c1C2=O)CC(O)(C(=O)CO)CC3OC1CC(N)C(O)C(C)O1 (stereo not given) + COC1C(OC(N)=O)C(O)C(Oc2ccc3c(O)c(NC(=O)c4ccc(O)c(CC=C(C)C)c4)c(=O)oc3c2C)OC1(C)C
2. CC[C@@]1(O)C(=O)OCc2c1cc1n(c2=O)Cc2cc3c(CN(C)C)c(O)ccc3nc2-1 + Cc1cccc(N(C)C(=O)C2C(O)CCN2c2nc(C)cc(C(F)(F)F)c2C#N)c1
3. CC1COCCN1c1cc(C2(O)CC3CCC(C2)O3)c2cnn(-c3ccn[nH]3)c2n1 (stereo not given) + Nc1ccc(C#CCN(C(=O)Cc2ncc(C(F)(F)F)cc2C(F)(F)F)c2ccc(F)cc2)nn1
4. CC[C@@]1(O)C(=O)OCc2c1cc1n(c2=O)Cc2cc3c(CN(C)C)c(O)ccc3nc2-1 + COC1C(OC(N)=O)C(O)C(Oc2ccc3c(O)c(NC(=O)c4ccc(O)c(CC=C(C)C)c4)c(=O)oc3c2C)OC1(C)C
5. CNCc1ccc(-c2[nH]c3cc(F)cc4c3c2CCNC4=O)cc1 + COC1C(OC(N)=O)C(O)C(Oc2ccc3c(O)c(NC(=O)c4ccc(O)c(CC=C(C)C)c4)c(=O)oc3c2C)OC1(C)C
6. C#Cc1c(F)ccc2cc(O)cc(-c3ncc4c(N5CC6CCC(C5)N6)nc(OCC56CCCN5CC(F)C6)nc4c3F)c12 (stereo not given) + Nc1ccc(C#CCN(C(=O)Cc2ncc(C(F)(F)F)cc2C(F)(F)F)c2ccc(F)cc2)nn1
7. Nc1ccn(C2OC(CO)C(O)C2(F)F)c(=O)n1 (stereo not given) + Cc1cccc(N(C)C(=O)C2C(O)CCN2c2nc(C)cc(C(F)(F)F)c2C#N)c1

## Result
[103, 46.3, 62.8, 46.3, 105, 111, 27.7]

State recorded viability, T/C for all listed compounds.
1. O=C(c1cc(Cc2n[nH]c(=O)c3ccccc23)ccc1F)N1CCN(C(=O)C2CC2)CC1 + Nc1ccc(C#CCN(C(=O)Cc2ncc(C(F)(F)F)cc2C(F)(F)F)c2ccc(F)cc2)nn1
2. CC(C)n1c(=O)n(C)c2cnc3cc(F)c(-c4ccc(OCCCN5CCCCC5)nc4)cc3c21 + COC1C(OC(N)=O)C(O)C(Oc2ccc3c(O)c(NC(=O)c4ccc(O)c(CC=C(C)C)c4)c(=O)oc3c2C)OC1(C)C

## Result
[99.8, 117]
